Values were extracted from PubChem BioAssay (NCI).

tested on: SK-MEL-2 melanoma; assay: NCI-60 one-dose screen, 48 h; details: 10 µM unless noted
This is part of a sample that, as a whole, favours compounds with a hit. Of some 83,000 tested, about 20% had one in any assay. Activity calls are given as the source filed them. Rule for the calls: active = growth percent below 10; inactive = the rest.
Outcome codes: T = active, F = inactive

# QUERY SMILES, GROUP
measured = [
    ("COc1ccc(Cn2cc(COc3cc(/C=C/C(=O)c4cc(OC)c(OC)c(OC)c4)ccc3OC)nn2)cc1", "F"),
    ("C=C1C(=O)O[C@H]2[C@H]1CC/C(COC(=O)NCc1cc(OC)c(OC)c(OC)c1)=C\\CC[C@@]1(C)O[C@@H]21", "F"),
    ("C[N+](C)(C)c1ccc(CC2c3ccccc3-c3ccccc32)cc1", "F"),
    ("NC(=O)c1c(NC(=O)c2ccc3c(c2)OCO3)sc2c1CCC(=O)C2", "T"),
    ("Nc1c(C(=O)Nc2ccccc2)sc2nc3c(cc12)CN(Cc1ccccc1)CC3", "F"),
]

====

Tested on: TK-10 renal
Assay: NCI-60 one-dose screen, 48 h (100 = growth as untreated, 0 = no growth, -100 = all killed)
Settings: 10 µM unless noted
Description: Growth inhibition of the TK-10 human tumor cell line is measured as a screen for anti-cancer activity. Cells are grown in 96 well plates and exposed to the test compound for 48 hours. Compounds are tested at a single concentration, which is 10^-5 M for most compounds. The reported endpoint is percent growth (GI% or GIPRCNT), where numbers from 0 - 100% represent growth inhibition, and numbers from -100% - 0 represent cell death. For example, a value of 40 represents 60% growth inhibition. […]
Compounds without any hit were thinned out: in the full panel of roughly 83,000, 20% have a hit.
// values below are reported growth

# COMPOUND, growth (%)
records = [
    ("Oc1ccc(N=Cc2ccccc2)cc1", 108),
    ("Cn1c(-c2nonc2NC(=O)c2ccc(F)cc2)nc2ccccc21", 124),
    ("Cc1oc2ncnc(Nc3ccccc3)c2c1C(=O)NCCO", 122),
    ("COc1cc2oc(-c3cccc(NC(=O)Nc4ccc5c(c4)OCO5)c3)cc(=O)c2c(OC)c1OC", 56),
    ("CC(=O)C1CCC(C)=CC1=O (centres undefined)", 97.7),
    ("O=C1CCCCN1CCCCC#Cc1ccccc1C#Cc1ccccn1", 136),
    ("CCCn1c(=S)sc2c(Cl)nc(C)nc21", 137),
    ("COc1ccc(C(=O)c2cc(OC)c(OC)c(OC)c2)cc1/C=C/C(=O)c1ccc(OC)c(OC)c1", 63.8),
    ("C=C1C(=O)O[C@H]2[C@H]1CC/C(COC(=O)NCCc1ccc(Br)cc1)=C\\CC[C@@]1(C)O[C@@H]21", 25.9),
]

====

tested on: MDA-MB-231 breast; experiment: NCI-60 one-dose screen, 48 h (100 = growth as untreated, 0 = no growth, -100 = all killed); conditions: 10 µM unless noted
About 83,000 compounds went through this panel and 20% of them were active in at least one assay; those are over-represented in the sample as a whole.

# MOLECULE, growth [%]
measured = [
    ("O=S(=O)(NCCCNc1cc(-c2cn(-c3ccccc3)nc2-c2cccc(O)c2)ccn1)c1cccc(F)c1", 7.26),
    ("COc1cc(OC)c(C(=O)/C=C/c2ccc(C(F)(F)F)cc2)c(OC)c1", 59.7),
    ("C=C1C(=O)O[C@H]2[C@H]1CC/C(Cn1cc(-c3ccsc3)nn1)=C\\CC[C@@]1(C)O[C@@H]21", -58),
    ("CC(C)(C)c1cc(-c2nc3ccc(N4CCN(CCO)CC4)cc3[nH]2)cc(C(C)(C)C)c1O", 39.2),
    ("Cc1nc(Nc2cccnc2)sc1C(=O)/C=C/c1ccc(F)cc1", 89.2),
    ("CCC(C)NCC(=O)O (stereo unspecified)", 111),
    ("C/C(=N\\NC(=O)CC#N)c1cc2cc(Cl)ccc2o1", 93.9),
    ("CC[C@]1(O)C[C@@H]2CN(Cc3c([nH]c4ccccc34)[C@@](C(=O)OC)(c3cc4c(cc3OC)N(C)[C@H]3[C@@](O)(C(=O)OC)[C@H](OC(C)=O)[C@]5(CC)[C@@H]6C[C@@H]6CN6CC[C@]43[C@@H]65)C2)C1", 0.275),
    ("CCC1CCc2nc3sc(C(=O)Nc4ccccc4F)c(N)c3cc2C1 (stereo unspecified)", 69.9),
    ("CCCOC(=O)C1(O)CCCC1", 112),
    ("CCc1cccc(C)c1NC(=O)c1sc2nc3c(cc2c1N)C(=O)CCC3", 31),
    ("O=S=Nc1ccc([N+](=O)[O-])cc1", 95.4),
    ("COc1cc(NC(=O)c2cc3ccccc3nc2Nc2ccc(F)cc2)cc(OC)c1OC", 51.2),
    ("COc1ccc(OC)c(/C=C2\\Oc3cc(OCCN4CCCC4)ccc3C2=O)c1", 84.6),
    ("O=C(CNC(=O)c1cccc2ccccc12)Nc1ccccc1Oc1ccccc1", 15),
    ("COc1ccc(-c2nc3sccn3c2-c2ccnc(NCCCNS(=O)(=O)c3ccc4ccccc4c3)n2)cc1", 53.7),
    ("C=C1C(=O)O[C@H]2[C@H]1CC/C(Cn1cc(-c3ccccc3C(F)(F)F)nn1)=C\\CC[C@@]1(C)O[C@@H]21", -33.4),
    ("CN(C)c1ccc(-c2ccc(-c3ccc(C(=N)N)cn3)o2)cc1", -84.4),
    ("NC(=O)c1ccc2c(c1)OCO2", 100),
    ("C=C1C(=O)O[C@H]2[C@H]1CC/C(COC(=O)NCCc1ccc(Br)cc1)=C\\CC[C@@]1(C)O[C@@H]21", -33.4),
    ("NS(=O)(=O)c1ccc(NCC(=O)Nc2ccc(-c3nc4ccccc4s3)cc2)cc1", 45),
    ("N#Cc1c(NC(=O)c2ccc([N+](=O)[O-])o2)[n+]([O-])c2cc(F)c(F)cc2[n+]1[O-]", 114),
    ("CCCC1OC(c2ccc(C(C)C)cc2)OCC1CC (stereo unspecified)", 107),
    ("CC(Br)C(Br)c1cc2c(cc1Br)OCO2 (stereo unspecified)", 110),
    ("c1cncc(CNc2ccccc2-c2nnc(Nc3ccc4c(c3)OCCO4)o2)c1", 26.4),
    ("Cc1sc2nc(CSc3nnc(-c4ccco4)o3)[nH]c(=O)c2c1C", 106),
]

====

system: UO-31 renal; assay: NCI-60 one-dose screen, 48 h (100 = growth as untreated, 0 = no growth, -100 = all killed); conditions: 10 µM unless noted
Compounds without any hit were thinned out: in the full panel of roughly 83,000, 20% have a hit.
READOUT TYPE: growth (%)

# COMPOUND, UNIT TEXT, EXPERIMENTAL RESULT
measured = [
    ("NC(=S)NN=C1CCCCC1", "%", 79.8),
    ("CCC(=O)Nc1ccccc1C#C/C=C\\C#Cc1ccccc1SC", "%", 21.5),
    ("O=C(CNc1c(Cl)cccc1Cl)Nc1ccc(-c2nc3ccccc3s2)cc1", "%", 73.7),
    ("Clc1cccc(Cl)c1Cn1c(-c2cncs2)nc2ccccc21", "%", 68.3),
    ("CCC(=O)Oc1ccc2c(c1)CC[C@@H]1[C@@H]2CC[C@]2(C)C[C@H](OC(=O)CC)C[C@@H]12", "%", 71.7),
    ("O=C(C[N+](=O)[O-])c1ccc(Cl)cc1", "%", 90.3),
    ("O=C(c1ccccc1)C(Cl)C(Cl)c1ccccc1 (stereo unspecified)", "%", -50.5),
    ("COc1cccc2cc(-c3cc4ccccc4[nH]3)c(=NC(=O)c3ccc(Cl)cc3)oc12", "%", 58.4),
    ("COc1cccc2nc(Nc3ccc(NC(=O)c4ccc5ncccc5c4)cc3)ccc12", "%", 82.4),
    ("Cc1cc(C(=O)O)c(N)c(C)n1", "%", 83.4),
    ("C/C1=C\\CCC2(C)OC2CC2CCC(C)(O)C(CC1)C2(C)C (stereo unspecified)", "%", 99.2),
    ("CC(Br)C(Br)c1cc2c(cc1Br)OCO2 (stereo unspecified)", "%", 90.7),
    ("C=CCOc1cccc(/C=C/C(=O)c2sc(Nc3cccnc3)nc2C)c1", "%", 47.7),
    ("CCCCOc1nc2c(C)cccc2cc1C1CNC(=O)c2ccccc2N1 (stereo unspecified)", "%", 67.8),
    ("CC(=O)OC[Si](C)(C)c1ccccc1", "%", 94.9),
    ("COc1cccc(NC(=O)c2sc3nc4c(cc3c2N)CCCC4)c1", "%", 40),
    ("CCO/C=N/NC(=O)c1ccncc1", "%", 98.9),
    ("NCCSC(c1ccccc1)(c1ccccc1)c1ccccc1", "%", 42.7),
    ("CC(=O)Nc1ccc(S(=O)(=O)N2C(=O)CCC2C(=O)Nc2ccc(Br)cc2)cc1 (stereo unspecified)", "%", 21.9),
    ("COc1ccc(S(=O)(=O)Nc2cc(/C=C\\c3cc(OC)c(OC)c(OC)c3)cc(OC)c2OC)cc1OC", "%", 40.7),
    ("O=c1c2cccc3c(Nc4ccc(F)cc4)ccc(c32)c2nc3ccccc3n12", "%", 49.2),
    ("Cc1cc(C)c(NC(=O)c2sc3nc4c(cc3c2N)CN(Cc2ccccc2)CC4)c(C)c1", "%", 26.5),
    ("CCCCCCCCCCn1cc[n+](C)c1", "%", 65.7),
    ("C=C1C(=O)O[C@H]2[C@H]1CC/C(COC(=O)NCCc1ccc(OC)cc1)=C\\CC[C@@]1(C)O[C@@H]21", "%", -82.8),
    ("CCC(C)NCC(=O)O (stereo unspecified)", "%", 98.4),
    ("Cc1cc(C)c2c(=O)[nH]c(SCC(=O)Nc3cccc(S(=O)(=O)N(C)C)c3)nc2n1", "%", 94.6),
    ("Oc1ccc(N=Cc2ccccc2)cc1", "%", 77.5),
    ("O=C(Nc1ccc(Br)c(Cl)c1)c1cc(F)ccc1O", "%", -1.56),
    ("CCCCC(N)(C(=O)O)C1CCCC1 (stereo unspecified)", "%", 90.9),
    ("O=S(=O)(NCCNc1nccc(-c2c(-c3ccccc3)nc3sccn23)n1)c1ccc(O)cc1", "%", 31.4),
    ("CCC(c1ccc(OC)cc1)C(CC)c1ccc(O)c(CN2CCCC2)c1 (stereo unspecified)", "%", 15),
    ("O=c1cc(C2NCCc3c2[nH]c2ccccc32)c2c(ccc3ccccc32)o1 (stereo unspecified)", "%", 26.2),
    ("CCN1C(=O)N(CC)C2Nn3c(s/c(=C4\\C(=O)N(C5CCCC5)c5ccccc54)c3=O)=NC21 (stereo unspecified)", "%", 51.7),
    ("COc1ccc2c(c1)C(=O)/C(=C/c1ccc(O)cc1)O2", "%", -97.4),
    ("COc1ccc(/C=C/c2nc(N3CCOCC3)c3cc(F)c(F)cc3n2)cc1OC", "%", 20.1),
    ("COC1=CC(c2ccc[nH]2)=N/C1=C\\c1[nH]c(C)c(CCCn2cc(CCCCCCCCC[C@@H]3Cc4cc(O)ccc4C4CC[C@]5(C)[C@@H](O)CC[C@H]5C43)nn2)c1C (stereo partly specified)", "%", 49.8),
    ("COc1cc(CCn2nnc3c(NCCCCO)ncnc32)cc(OC)c1", "%", 86.4),
    ("COc1ccc(C(=O)c2cc(OC)c(OC)c(OC)c2)cc1/C=C/C(=O)c1ccc(O)cc1", "%", 36.4),
    ("COc1cc(OC)c(C(=O)/C=C/c2ccc(C(F)(F)F)cc2)c(OC)c1", "%", 56.4),
    ("COc1ccc(/C=C/C(=O)OCC(=O)NNC(=O)c2ccccc2)cc1OC", "%", 80.9),
    ("CC(Br)C(OC(=O)c1ccccc1Cl)c1cc2c(cc1Br)OCO2 (stereo unspecified)", "%", 49.1),
]
